// IC50 collected for human prostate epithelial 15-lipoxygenase-2 (15-LOX-2) (Homo sapiens, UniProt O15296)

Previously resolved entries follow.
INSERT INTO measurements (compound, assayed_target, readout_value) VALUES
  ('N#Cc1ccc(-c2ccc(CNc3ccc(N4CCCCC4)cc3)o2)cc1', 'human prostate epithelial 15-lipoxygenase-2 (15-LOX-2) (Homo sapiens, UniProt O15296)', '10 µM'),
  ('CC(C)(C)OC(=O)N1CCN(c2ccc(NCc3ccc(-c4ccc(C#N)cc4)o3)cc2)CC1', 'human prostate epithelial 15-lipoxygenase-2 (15-LOX-2) (Homo sapiens, UniProt O15296)', '> 150 µM'),
  ('CC(=O)N1CCN(c2ccc(OCC3COC(Cn4ccnc4)(c4ccc(Cl)cc4Cl)O3)cc2)CC1 (stereo not shown) [ketoconazole, reference compound]', 'human prostate epithelial 15-lipoxygenase-2 (15-LOX-2) (Homo sapiens, UniProt O15296)', '> 150 µM');

// moving on: another record for IC50
Looking up CC[C@](O)(c1nnc(NCc2ccc3c(-c4ccc(F)cc4)cc(=O)oc3c2)o1)C(F)(F)F [setileuton, reference compound] , I see its IC50 listed as > 150 µM
